Would you mind telling me the reported scaled log2 fold change of each entry?
B1: library; numbered along this chain (parent)
chain: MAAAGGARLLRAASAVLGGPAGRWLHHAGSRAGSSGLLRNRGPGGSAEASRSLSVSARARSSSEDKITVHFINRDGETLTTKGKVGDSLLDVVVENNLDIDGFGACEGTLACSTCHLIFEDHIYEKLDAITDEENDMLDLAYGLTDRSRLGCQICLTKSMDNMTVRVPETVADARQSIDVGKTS

Variants of: B1
method.notes: scaled log2 fold change in cell abundance, elesclomol vs control (0 = silent mean, 1 = nonsense mean) (scaled log2 ratio); higher = higher viability under elesclomol (loss of FDX1 cuproptosis function);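 further: variant abundance is its share of total variant reads in each endpoint sample, from next-generation sequencing of the integrated ORF PCR-amplified out of genomic DNA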
conditions: with HEK293T FDX1 KO; elesclomol 40 nM; glucose 10 mM; 11 days
Give bare numbers.

mutation.descriptor: A105M
scaled log2 fold change: 0.677
//
mutation.descriptor: S63W
scaled log2 fold change: 0.0977
//
mutation.descriptor: T114I
scaled log2 fold change: 1.01
//
mutation.descriptor: S63G
scaled log2 fold change: 0.000639
//
mutation.descriptor: G18D
scaled log2 fold change: 0.58
//
mutation.descriptor: G19K
scaled log2 fold change: -0.256
//
mutation.descriptor: T170A
scaled log2 fold change: -0.0909
//
mutation.descriptor: G44N
scaled log2 fold change: -0.289

State recorded scaled log2 fold change for all listed variants.
1. R58E
2. G42H
3. G104H
4. C115A

-0.142
-0.419
0.725
1.02

Please look at the items below and tell me scaled log2 fold change for each one, in order.
1. Y142Q
2. T164Y
3. A111S

1. -0.021
2. 0.173
3. -0.445

Please go through the list and note scaled log2 fold change for each variant.
1. K158P
2. L37K

[0.515, -0.805]
